The measurements presented in this section are drawn from patent US20260125375A1.

SUBJECT_OF_TEST: WT CBL-B (36-427) (Homo sapiens, UniProt Q13191)
Construct: N-terminal biotinylated WT CBL-B (36-427) and C-CBL (46-435) were captured on a streptavidin (SA) coated sensor chip
Sequence (Q13191 36-427): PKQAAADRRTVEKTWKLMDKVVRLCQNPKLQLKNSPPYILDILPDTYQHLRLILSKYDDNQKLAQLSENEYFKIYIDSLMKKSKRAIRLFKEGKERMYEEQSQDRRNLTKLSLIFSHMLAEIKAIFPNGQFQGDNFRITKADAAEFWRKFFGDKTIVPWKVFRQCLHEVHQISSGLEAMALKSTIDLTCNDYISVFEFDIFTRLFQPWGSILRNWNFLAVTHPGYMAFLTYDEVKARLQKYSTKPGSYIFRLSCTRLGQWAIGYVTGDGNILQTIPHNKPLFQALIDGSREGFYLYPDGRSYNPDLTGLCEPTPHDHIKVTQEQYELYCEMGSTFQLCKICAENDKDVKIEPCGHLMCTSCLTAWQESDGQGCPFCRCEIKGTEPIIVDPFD
RUN_DESCRIPTION: Surface Plasmon Resonance (SPR) assay, binding affinity and kinetics, CBL-B
EXPERIMENTAL_CONTEXT: SPR at 10° C., biotinylated WT CBL-B (36-427) on streptavidin chip; geometric mean; read-out: CBL-B SPR Kd (nM) GMean
READOUT: Kd (nM)
Give the number; nM is assumed, so skip it.

MOLECULE | Kd / nM
C[C@H](c1nc(C(F)(F)F)cc2c(-c3cccc(C4(Cc5nncn5C)COC4)c3)n[nH]c12)N1CCC1 (single isomer, unassigned) | 9.4
C[C@H](c1nc(C(F)(F)F)cc2c(-c3cccc(C4(Cc5nncn5C)COC4)c3)n[nH]c12)N1CCCC1 (single isomer, unassigned) | 9.3

Entry CC(N[C@@H]1CCOC1)c1nc(C(F)(F)F)cc2c(-c3cccc(C4(Cc5nncn5C)COC4)c3)n[nH]c12 (single isomer, unassigned) [Example C85] ; Kd = 2.1

Kd reading for C[C@@H]1CCCN([C@@H](C)c2nc(C(F)(F)F)cc3c(-c4cccc(C5(Cc6nncn6C)COC5)c4)n[nH]c23)C1 (single isomer, unassigned) : 3.5

So, COc1nc(C(F)(F)F)cc2c(-c3cccc(C4(Cc5nncn5C)COC4)c3)n[nH]c12 ? Its Kd was 21.4

So for Cn1cnnc1[C@@H](c1cccc(-c2n[nH]c3c(CN4CC(F)C4)nc(C(F)(F)F)cc23)c1)C1CCC1 , the logged Kd turned out to be 5.9
